Source listed as patent US5045566A.

Each entry below carries its reported LC50 MW.
Tested on: Maize weevil [Sitophilus zeamais (Motschulsky)]
PROCEDURE SUMMARY: Maize weevil on dipped corn seeds (MW), 48 hours
Format: in vivo
CONDITION LABEL: percent in solution, adult weevils

See these solved cases before continuing.
Cc1cccc(N=C(OCc2ccc(F)c(Oc3ccc(Cl)cc3)c2)C(C)C)c1 = > 0.01%
CC(C)C(=Nc1ccc(F)c(F)c1)OCc1ccc(F)c(Oc2ccc(F)cc2)c1 = 0.0063%

LC50 MW for CC(C)C(=Nc1ccc2c(c1)OC(F)(F)O2)OCc1cccc(Oc2ccc(Cl)cc2)c1 ?
0.01%

Look up LC50 MW: COc1ccc(N=C(OCc2ccc(F)c(Oc3ccc(Cl)cc3)c2)C(C)C)cc1Cl
> 0.01%

Given the compound FC(F)(F)C(=Nc1ccc(Cl)cc1)OCc1cccc(Oc2ccccc2)c1 , what is its reported LC50 MW?
> 0.01%

Need LC50 MW, item CC(Br)C(=Nc1ccc2c(c1)OCO2)OCc1cccc(Oc2ccccc2)c1 (centres unmarked)
> 0.01%

Item COc1ccc(N=C(OCc2ccc(F)c(Oc3ccccc3)c2)C(C)C)cc1Cl has what recorded LC50 MW?
> 0.01%
